# assay.target: DGKα (Homo sapiens (Human), UniProt P23743)
# Sequence (P23743 whole entry): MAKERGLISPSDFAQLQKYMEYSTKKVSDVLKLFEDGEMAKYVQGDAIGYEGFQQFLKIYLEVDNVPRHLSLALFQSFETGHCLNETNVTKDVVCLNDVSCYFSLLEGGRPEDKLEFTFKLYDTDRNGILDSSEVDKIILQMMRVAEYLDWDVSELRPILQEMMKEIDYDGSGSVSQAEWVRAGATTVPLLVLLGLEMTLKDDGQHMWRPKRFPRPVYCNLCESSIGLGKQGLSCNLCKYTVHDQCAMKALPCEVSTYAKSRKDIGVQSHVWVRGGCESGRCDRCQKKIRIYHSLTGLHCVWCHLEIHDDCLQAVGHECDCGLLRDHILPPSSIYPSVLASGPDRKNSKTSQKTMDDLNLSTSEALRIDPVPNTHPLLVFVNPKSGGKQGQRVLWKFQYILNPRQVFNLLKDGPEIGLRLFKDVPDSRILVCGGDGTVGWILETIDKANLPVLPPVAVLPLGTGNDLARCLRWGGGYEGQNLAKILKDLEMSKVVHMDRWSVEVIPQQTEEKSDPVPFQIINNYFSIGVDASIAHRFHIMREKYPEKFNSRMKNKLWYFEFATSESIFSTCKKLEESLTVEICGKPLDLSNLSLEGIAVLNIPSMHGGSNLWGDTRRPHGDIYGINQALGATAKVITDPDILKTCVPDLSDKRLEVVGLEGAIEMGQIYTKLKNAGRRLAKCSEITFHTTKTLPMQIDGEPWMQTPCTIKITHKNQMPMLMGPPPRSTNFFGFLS
# method.notes: In vitro DGKα inhibition assay (ADP-Glo)
# Assay type: biochemical
# recorded.conditions: first column of Table A; His-tagged human recombinant DGKα 0.1 nM, 50 μM ATP, 20 μM DLG
I'd appreciate it if you could supply IC50 values for the items below.

Identify the measured IC50 of C[C@@H]1CN(c2nc(=O)n(C)c3c2nnn3C[C@@H]2CCCO2)[C@@H](C)CN1C(c1ccc(F)cc1)c1ccc(F)cc1 [Example 12] for DGKα (Homo sapiens (Human), UniProt P23743). ≤ 10 nM

Identify the measured IC50 of CC[C@@H]1CN(c2nc(=O)n(C)c3c2nc(C)n3C[C@@H]2CCCO2)[C@@H](C)CN1[C@H](CC)c1ccc(C(F)(F)F)cc1 [Example 29] for DGKα (Homo sapiens (Human), UniProt P23743). ≤ 10 nM

Identify the measured IC50 of Cc1nc2c(N3C[C@@H](C)N(C(c4ccc(C(F)(F)F)cc4)C4CC(F)(F)C4)C[C@@H]3C)nc(=O)[nH]c2n1C[C@@H]1CCCO1 (single isomer, unassigned) [Example 14] for DGKα (Homo sapiens (Human), UniProt P23743). ≤ 10 nM

----------
# assay.target: DGKα (Homo sapiens (Human), UniProt P23743)
# method.notes: In vitro DGKα inhibition assay (ADP-Glo)
# Type: biochemical
# recorded.conditions: first column of Table A; His-tagged human recombinant DGKα 0.1 nM, 50 μM ATP, 20 μM DLG
measurement.label: IC50

Can you share its IC50? I mean this compound: CC[C@@H]1CN(c2nc(=O)n(C)c3c2nc(C)n3C[C@@H]2CCCO2)[C@@H](C)CN1C(c1ccc(Cl)cc1)C1CC(F)(F)C1 (stereo partly drawn) [Example 37] ≤ 10 nM

Can you share its IC50? I mean this compound: C[C@@H]1CN(c2nc(=O)n(C)c3c2nnn3C[C@H]2CCCO2)[C@@H](C)CN1C(c1ccc(C(F)(F)F)cc1)C1CC(F)(F)C1 (stereo partly drawn) [Example 43] ≤ 10 nM

Can you share its IC50? I mean this compound: Cc1nc2c(N3C[C@@H](C)N(C(c4ccc(C(F)(F)F)cc4)C4CC(F)(F)C4)C[C@@H]3C)nc(=O)n(C)c2n1C[C@H]1OCC[C@@H]1O (single isomer, unassigned) [Example 34] ≤ 10 nM

----------
# assay.target: DGKζ (Homo sapiens (Human))
# Sequence (Q13574 whole entry): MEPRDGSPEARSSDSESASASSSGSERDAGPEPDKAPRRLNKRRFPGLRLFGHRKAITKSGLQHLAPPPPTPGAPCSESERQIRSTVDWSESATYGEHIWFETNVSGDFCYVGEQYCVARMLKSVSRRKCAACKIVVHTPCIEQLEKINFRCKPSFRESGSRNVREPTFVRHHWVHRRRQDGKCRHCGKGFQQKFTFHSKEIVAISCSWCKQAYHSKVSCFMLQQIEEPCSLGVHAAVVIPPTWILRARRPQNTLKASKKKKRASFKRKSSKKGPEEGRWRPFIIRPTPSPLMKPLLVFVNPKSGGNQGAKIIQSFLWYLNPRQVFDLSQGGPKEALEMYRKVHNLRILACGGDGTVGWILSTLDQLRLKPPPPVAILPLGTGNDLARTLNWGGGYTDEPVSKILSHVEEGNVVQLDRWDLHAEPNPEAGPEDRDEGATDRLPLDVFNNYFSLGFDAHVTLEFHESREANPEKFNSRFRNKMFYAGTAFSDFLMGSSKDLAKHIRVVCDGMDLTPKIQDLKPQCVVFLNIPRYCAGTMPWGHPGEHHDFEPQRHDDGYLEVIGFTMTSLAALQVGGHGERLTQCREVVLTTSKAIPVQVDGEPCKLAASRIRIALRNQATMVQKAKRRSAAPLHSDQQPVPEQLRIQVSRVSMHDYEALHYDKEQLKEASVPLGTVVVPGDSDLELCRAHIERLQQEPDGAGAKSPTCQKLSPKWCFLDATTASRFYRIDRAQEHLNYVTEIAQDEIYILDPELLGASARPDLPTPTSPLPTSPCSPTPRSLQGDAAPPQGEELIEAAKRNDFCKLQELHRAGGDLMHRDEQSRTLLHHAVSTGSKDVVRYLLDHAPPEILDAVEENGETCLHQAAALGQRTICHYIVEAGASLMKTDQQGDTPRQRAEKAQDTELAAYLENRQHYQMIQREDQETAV
# method.notes: In vitro DGKζ inhibition assay (ADP-Glo)
# recorded.conditions: second column of Table A, head printed DGKα, presumably DGKζ; His-tagged human recombinant DGKζ 0.4 nM, 30 μM ATP, 20 μM DLG
# Description: The DGKα and DGKζ biochemical reactions were performed using His-tagged human recombinant enzymes (Signal Chem, DGKα, #D21-10BH; DGKζ, #D30-1OH)) and DLG (Dilauroyl-sn-glycerol) lipid substrate (Signal Chem, #D430-59). […] For compound inhibition studies, 40 nL test compound in DMSO was added to wells of white polystyrene plates in 384-well (Greiner, #784075) or 1536-well format (Greiner, #782075). […] Plates were then read using Luminescence method on BMG PHERAstar FSX plate reader. […]
I'd appreciate it if you could supply IC50 values for the items below.

Can you share its IC50? I mean this molecule: C[C@@H]1CN(c2nc(=O)n(C)c3c2ncn3CC2(O)CCC2)[C@@H](C)CN1C(c1ccc(Cl)cc1)C1CC(F)(F)C1 (stereo partly drawn) [Example 67] ≤ 10 nM

Can you share its IC50? I mean this molecule: CC[C@@H]1CN(c2nc(=O)n(C)c3c2nnn3C[C@H]2CCCO2)[C@@H](C)CN1[C@@H](CC)c1ccc(C(F)(F)F)cc1 [Example 30] ≤ 10 nM

Can you share its IC50? I mean this molecule: Cc1nc2c(N3C[C@@H](C)N(C(c4ccc(C(F)(F)F)cc4)C4CC(F)(F)C4)C[C@@H]3C)nc(=O)[nH]c2n1C[C@@H]1CCCO1 (single isomer, unassigned) [Example 14] ≤ 100 nM

Can you share its IC50? I mean this molecule: CC(C)CC(c1ccc(Cl)cc1)N1C[C@H](C)N(c2nc(=O)n(C)c3c2nnn3C[C@H]2CCCO2)C[C@H]1C (single isomer, unassigned) [Example 18] ≤ 10 nM

Can you share its IC50? I mean this molecule: CCC(c1ccc(C(F)(F)F)cc1)N1C[C@H](C)N(c2nc(=O)n(C)c3c2ncn3CC2(O)CCCC2)C[C@H]1CC (single isomer, unassigned) [Example 73] ≤ 10 nM

Can you share its IC50? I mean this molecule: C[C@@H]1CN(c2nc(=O)n(C)c3c2ccn3C[C@@H]2CCCO2)[C@@H](C)CN1C(c1ccc(F)cc1)c1ccc(F)cc1 [Example 6] ≤ 100 nM

Can you share its IC50? I mean this molecule: Cc1nc2c(N3C[C@@H](C)N([C@H](c4ccc5ccc(C(F)(F)F)cc5n4)C(C)C)C[C@@H]3C)nc(=O)n(C)c2n1C[C@@H]1CCCO1 [Example 50] ≤ 10 nM

Can you share its IC50? I mean this molecule: Cc1nc2c(N3C[C@@H](C)N(C(c4ccc(C(F)(F)F)cc4)C4CC(F)(F)C4)C[C@@H]3C)nc(=O)n(C)c2n1C[C@H]1OCC[C@H]1O (single isomer, unassigned) [Example 35] ≤ 10 nM

Can you share its IC50? I mean this molecule: C[C@@H]1CN(c2nc(=O)n(C)c3c2nnn3C[C@@H]2CCCO2)[C@@H](C)CN1C(c1ccc(F)cc1)c1ccc(F)cc1 [Example 12] ≤ 10 nM

Can you share its IC50? I mean this molecule: CC[C@@H]1CN(c2nc(=O)n(C)c3c2nnn3C[C@H]2CCCO2)[C@@H](C)CN1[C@H](CC)c1ccc(C(F)(F)F)cc1 [Example 31] ≤ 10 nM

Can you share its IC50? I mean this molecule: CC[C@@H]1CN(c2nc(=O)n(C)c3c2nnn3C[C@H]2CCCO2)[C@@H](C)CN1[C@@H](c1ccc(Cl)cc1)[C@@H]1CC1(F)F [Example 23] ≤ 10 nM

Can you share its IC50? I mean this molecule: CC[C@@H]1CN(c2nc(=O)n(C)c3c2nc(C)n3C[C@@H]2CCCO2)[C@@H](C)CN1[C@@H](CC)c1ccc(Cl)cc1 [Example 24] ≤ 10 nM
